Values were extracted from patent US20250136576A1.

# key: entry, value: IC50
- Test system: H1975 cells
- method description: Cell proliferation and growth inhibition assay (CCK-8) in H1975
- Type: cell-based
- condition summary: Homo sapiens, NCI-H1975, 72 h, treated with test compounds for 72 hrs, CCK-8 viability, read-out: EGFR IC50 in H1975
Please state the figure in nM; there is no need to write the unit.

[
  {
    "compound": "CCC(=O)Nc1cc(Nc2ncc(C(F)(F)F)c(-c3c[nH]c4c(F)cccc34)n2)ccc1N(C)CCN(C)C",
    "experimental readout": "IC50",
    "value observed": 95.4
  },
  {
    "compound": "CC(=O)Nc1cc(Nc2ncc(Cl)c(-c3c[nH]c4c(F)cccc34)n2)ccc1N(C)CCN(C)C",
    "experimental readout": "IC50",
    "value observed": 380
  },
  {
    "compound": "CC(=O)Nc1cc(Nc2ncc(Cl)c(-c3cn(C)c4ccccc34)n2)ccc1N1CCC(N(C)C)C1 (stereo not shown)",
    "experimental readout": "IC50",
    "value observed": 1210
  },
  {
    "compound": "CC(=O)Nc1cc(Nc2ncc(C(F)(F)F)c(-c3c[nH]c4c(C)cccc34)n2)ccc1OCCN(C)C",
    "experimental readout": "IC50",
    "value observed": 68.3
  },
  {
    "compound": "COc1cccc2c(-c3nc(Nc4ccc(OCCN(C)C)c(NC(C)=O)c4)ncc3C(F)(F)F)c[nH]c12",
    "experimental readout": "IC50",
    "value observed": 168
  }
]

Report measured IC50; entry is CCC(=O)Nc1cc(Nc2ncc(C(F)(F)F)c(-c3c[nH]c4ccccc34)n2)ccc1N(C)CCN(C)C
289

Report measured IC50; entry is COc1cccc2c(-c3nc(Nc4ccc(N5CC[C@@H](N(C)C)C5)c(NC(C)=O)c4)ncc3Cl)cn(C)c12
1040

Report measured IC50; entry is Cc1cccc2c(-c3nc(Nc4ccc(N(C)CCN(C)C)c(N)c4)ncc3F)c[nH]c12
425

Report measured IC50; entry is CCC(=O)Nc1cc(Nc2ncc(F)c(-c3c[nH]c4c(OC)cccc34)n2)ccc1N(C)CCN(C)C
769

Report measured IC50; entry is CCC(=O)Nc1cccc(Nc2ncc(Cl)c(Nc3ccc(C4CCCN(C)C4)cc3OC)n2)c1 (stereo not shown)
691

Report measured IC50; entry is CC(=O)Nc1cc(Nc2nccc(-c3c[nH]c4c(F)cccc34)n2)ccc1N(C)CCN(C)C
1020

---

# key: entry, value: IC50
- System: H1975 cells
- method description: Cell proliferation and growth inhibition assay (CCK-8) in H1975
- Type: cell-based
- condition summary: Homo sapiens, NCI-H1975, 72 h, treated with test compounds for 72 hrs, CCK-8 viability, read-out: EGFR IC50 in H1975
- Protocol: MV-4-11 and H1975 cells were obtained from the American Type Culture Collection and KM12-luc cells were obtained from JCRB Cell Bank. […] Cell proliferation was assessed by CCK-8 assay (Yeasen) per the manufacturer's instructions. […] Absorbance was measured at OD450 using the Beckman DTX880. The data was calculated using GraphPad Prism version 6.01. […]

Use these answered entries as a reference point.
[
  {
    "compound": "COc1cccc2c(-c3ccnc(Nc4ccc(N(C)CCN(C)C)c(NC(C)=O)c4)n3)c[nH]c12 [Compound 554]",
    "IC50": "1030 nM"
  },
  {
    "compound": "CCN(CCN(C)C)c1ccc(Nc2ncc(C(F)(F)F)c(-c3c[nH]c4cccc(F)c34)n2)cc1N [Compound 319]",
    "IC50": "772 nM"
  },
  {
    "compound": "CC(=O)Nc1cc(Nc2ncc(Cl)c(-c3cnc(C(C)C)n3C)n2)ccc1N(C)CCN(C)C [Compound 452]",
    "IC50": "> 20000 nM"
  }
]

Report measured IC50; entry is CC(=O)Nc1cc(Nc2ncc(C(F)(F)F)c(-c3c[nH]c4c(C)cccc34)n2)ccc1N1CC[C@H](N(C)C)C1 [Compound S-366]
97.8 nM

Report measured IC50; entry is CCC(=O)Nc1cc(Nc2ncc(F)c(-c3c[nH]c4c(C)cccc34)n2)ccc1N(C)CCN(C)C [Compound 526]
656 nM

Report measured IC50; entry is CN(C)CCN(C)c1ccc(Nc2ncc(F)c(-c3c[nH]c4c(F)cccc34)n2)cc1N [Compound 520]
1180 nM

Report measured IC50; entry is COc1cccc2c(-c3nc(Nc4ccc(N5CC[C@@H](N(C)C)C5)c(NC(C)=O)c4)ncc3C(F)(F)F)cn(C)c12 [Compound R-389]
940 nM

---

- Test system: H1975 cells
- method description: Cell proliferation and growth inhibition assay (CCK-8) in H1975
- Assay type: cell-based
- condition summary: Homo sapiens, NCI-H1975, 72 h, treated with test compounds for 72 hrs, CCK-8 viability, read-out: EGFR IC50 in H1975
# key: entry, value: IC50

Use these answered entries as a reference point.
[
  {
    "compound": "CCC(=O)Nc1cc(Nc2nc(-c3cn(C)c4ccccc34)c3cc[nH]c3n2)ccc1N(CC)CCN(C)C [Compound 212b]",
    "IC50": "1660 nM"
  },
  {
    "compound": "CC(=O)Nc1cc(Nc2ncc(Cl)c(-c3c[nH]c4c(C)cccc34)n2)ccc1N1CC[C@@H](N(C)C)C1",
    "IC50": "152 nM"
  },
  {
    "compound": "CCC(=O)Nc1cc(Nc2ncc(OC)c(-c3c[nH]c4c(C)cccc34)n2)ccc1N(C)CCN(C)C",
    "IC50": "1300 nM"
  },
  {
    "compound": "COc1cccc2c(-c3nc(Nc4ccc(N5CC[C@@H](N(C)C)C5)c(N)c4)ncc3C(F)(F)F)c[nH]c12",
    "IC50": "129 nM"
  },
  {
    "compound": "COc1cccc2c(-c3nc(Nc4ccc(N(C)CCN(C)C)c(N)c4)ncc3F)c[nH]c12",
    "IC50": "298 nM"
  }
]

Now for another entry.
Report measured IC50; entry is COc1cccc2c(-c3nc(Nc4ccc(N(C)CCN(C)C)c(NC(C)=O)c4)ncc3C(F)(F)F)c[nH]c12
52.5 nM

---

- System: H1975 cells
- method description: Cell proliferation and growth inhibition assay (CCK-8) in H1975
- Type: cell-based
- condition summary: Homo sapiens, NCI-H1975, 72 h, treated with test compounds for 72 hrs, CCK-8 viability, read-out: EGFR IC50 in H1975
- Procedure: MV-4-11 and H1975 cells were obtained from the American Type Culture Collection and KM12-luc cells were obtained from JCRB Cell Bank. […] Cell proliferation was assessed by CCK-8 assay (Yeasen) per the manufacturer's instructions. […] Absorbance was measured at OD450 using the Beckman DTX880. The data was calculated using GraphPad Prism version 6.01. […]
experimental readout: pIC50
Recall that pIC50 is obtained by taking minus log10 of the concentration measured in molar.

Use these answered entries as a reference point.
[
  {
    "compound": "CCN(CCN(C)C)c1ccc(Nc2ncc(C(F)(F)F)c(-c3c[nH]c4c(F)cccc34)n2)cc1N [Compound 337]",
    "pIC50": 6.44
  },
  {
    "compound": "COc1cccc2c(-c3nc(Nc4ccc(N5CC[C@H](N(C)C)C5)c(NC(C)=O)c4)ncc3Cl)cn(C)c12 [Compound S-435]",
    "pIC50": 5.81
  },
  {
    "compound": "CC(=O)Nc1cc(Nc2ncc(C(F)(F)F)c(-c3c[nH]c4ccccc34)n2)ccc1NCCN(C)C [Compound 303a]",
    "pIC50": 6.96
  },
  {
    "compound": "CCC(=O)Nc1cc(Nc2ncc(F)c(-c3c[nH]c4c(F)cccc34)n2)ccc1N(C)CCN(C)C [Compound 522]",
    "pIC50": 6.00
  },
  {
    "compound": "CC(=O)Nc1cc(Nc2ncc(C(F)(F)F)c(-c3c[nH]c4cccc(F)c34)n2)ccc1N(C)CCN(C)C [Compound 316]",
    "pIC50": 6.32
  }
]

Report measured pIC50; entry is CCC(=O)Nc1cc(Nc2nccc(-c3c[nH]c4c(F)cccc34)n2)ccc1N(C)CCN(C)C [Compound 547]
5.93

Report measured pIC50; entry is CN(C)CCN(C)c1ccc(Nc2nccc(-c3c[nH]c4c(F)cccc34)n2)cc1N [Compound 545]
6.06

---

- System: KM12-luc cells
- method description: Cell proliferation and growth inhibition assay (CCK-8) in KM12-luc
- Type: cell-based
- condition summary: KM12-Luc, 72 h, read-out: NTRK IC50 in KM12-luc
# key: entry, value: pIC50
Recall that pIC50 is obtained by taking minus log10 of the concentration measured in molar.

Use these answered entries as a reference point.
[
  {
    "molecule": "CCNc1cc(Nc2nc(-c3cn(C)c4ccccc34)c3cc[nH]c3n2)ccc1N(C)CCN(C)C [Compound 205b]",
    "subject of test": "KM12-luc cells",
    "pIC50": 6.52
  },
  {
    "molecule": "CCNc1cc(Nc2nc(-c3cn(C)c4cc(F)ccc34)c3cc[nH]c3n2)ccc1N(C)CCN(C)C [Compound 232b]",
    "subject of test": "KM12-luc cells",
    "pIC50": 6.31
  },
  {
    "molecule": "CC(=O)Nc1cc(Nc2nc(-c3cn(C)c4ccc(F)cc34)c3cc[nH]c3n2)ccc1N(C)CCN(C)C [Compound 227a]",
    "subject of test": "KM12-luc cells",
    "pIC50": 6.24
  },
  {
    "molecule": "CCNc1cc(Nc2nc(-c3cn(C)c4ccccc34)c3cc[nH]c3n2)ccc1N(CC)CCN(C)C [Compound 212f]",
    "subject of test": "KM12-luc cells",
    "pIC50": 6.26
  },
  {
    "molecule": "CC(=O)Nc1cc(Nc2nc(-c3cn(C)c4ccccc34)c3cc[nH]c3n2)ccc1N(C)CCN(C)C [Compound 205a]",
    "subject of test": "KM12-luc cells",
    "pIC50": 7.43
  },
  {
    "molecule": "CC(=O)Nc1cc(Nc2nc(-c3cn(C)c4cc(F)ccc34)c3cc[nH]c3n2)ccc1N(C)CCN(C)C [Compound 232a]",
    "subject of test": "KM12-luc cells",
    "pIC50": 7.07
  },
  {
    "molecule": "CCNc1cc(Nc2nc(-c3cn(C)c4ccc(F)cc34)c3cc[nH]c3n2)ccc1N(C)CCN(C)C [Compound 227b]",
    "subject of test": "KM12-luc cells",
    "pIC50": 6.17
  },
  {
    "molecule": "CCN(CCN(C)C)c1ccc(Nc2nc(-c3cn(C)c4ccccc34)c3cc[nH]c3n2)cc1NC(C)=O [Compound 212c]",
    "subject of test": "KM12-luc cells",
    "pIC50": 7.36
  }
]

Report measured pIC50; entry is CCN(CCN(C)C)c1ccc(Nc2nc(-c3cn(C)c4ccc(F)cc34)c3cc[nH]c3n2)cc1NC(C)=O [Compound 227c]
6.36

Report measured pIC50; entry is CCNc1cc(Nc2nc(-c3cn(C)c4ccc(F)cc34)c3cc[nH]c3n2)ccc1N(CC)CCN(C)C [Compound 227d]
5.70
